conditions: in isopropanol, 302.17 K
Parameter: solubility (mole fraction)
Form rule: numeric answer, no unit written next to it.

Query block: Consider the molecule CC1(C)COP(=O)(C(Nc2ccccc2)c2ccccc2)OC1 (stereo unspecified) and give its measured solubility (mole fraction).
Result block: 0.00128

* * *

details: in THF, 288.15 K
Parameter: solubility (mole fraction)
Form rule: numeric answer, no unit written next to it.

Query block: Consider the molecule CC1(C)COP(=O)(C(Nc2ccccc2)c2ccccc2)OC1 (stereo unspecified) and give its measured solubility (mole fraction).
Result block: 0.00764

* * *

conditions: in 1,2-dichloroethane, 278.65 K
Parameter: solubility (mole fraction)
Form rule: numeric answer, no unit written next to it.

Query block: Consider the compound CC1(C)COP(=O)(C(Nc2ccccc2)c2ccccc2)OC1 (stereo unspecified) and give its measured solubility (mole fraction).
Result block: 0.0102

* * *

conditions: in isopropanol, 307.95 K
Parameter: solubility (mole fraction)
Form rule: numeric answer, no unit written next to it.

Query block: Consider the compound CC1(C)COP(=O)(C(Nc2ccccc2)c2ccccc2)OC1 (stereo unspecified) and give its measured solubility (mole fraction).
Result block: 0.00177

* * *

settings: in benzene, 307.95 K
Parameter: solubility (mole fraction)
Form rule: numeric answer, no unit written next to it.

Query block: Consider the molecule CC1(C)COP(=O)(C(Nc2ccccc2)c2ccccc2)OC1 (stereo unspecified) and give its measured solubility (mole fraction).
Result block: 0.00381

* * *

details: in acetonitrile, 298.25 K
Parameter: solubility (mole fraction)
Form rule: numeric answer, no unit written next to it.

Query block: Consider the molecule CC1(C)COP(=O)(C(Nc2ccccc2)c2ccccc2)OC1 (stereo unspecified) and give its measured solubility (mole fraction).
Result block: 0.0101

* * *

details: in THF, 318.05 K
Parameter: solubility (mole fraction)
Form rule: numeric answer, no unit written next to it.

Query block: Consider the compound CC1(C)COP(=O)(C(Nc2ccccc2)c2ccccc2)OC1 (stereo unspecified) and give its measured solubility (mole fraction).
Result block: 0.0169

* * *

details: in acetonitrile, 278 K
Parameter: solubility (mole fraction)
Form rule: numeric answer, no unit written next to it.

Query block: Consider the molecule CC1(C)COP(=O)(C(Nc2ccccc2)c2ccccc2)OC1 (stereo unspecified) and give its measured solubility (mole fraction).
Result block: 0.00557

* * *

details: in THF, 332.65 K
Parameter: solubility (mole fraction)
Form rule: numeric answer, no unit written next to it.

Query block: Consider the molecule CC1(C)COP(=O)(C(Nc2ccccc2)c2ccccc2)OC1 (stereo unspecified) and give its measured solubility (mole fraction).
Result block: 0.0237

* * *

settings: in acetonitrile, 312.75 K
Parameter: solubility (mole fraction)
Form rule: numeric answer, no unit written next to it.

Query block: Consider the compound CC1(C)COP(=O)(C(Nc2ccccc2)c2ccccc2)OC1 (stereo unspecified) and give its measured solubility (mole fraction).
Result block: 0.0161

* * *

conditions: in ethyl acetate, 308.05 K
Parameter: solubility (mole fraction)
Form rule: numeric answer, no unit written next to it.

Query block: Consider the molecule CC1(C)COP(=O)(C(Nc2ccccc2)c2ccccc2)OC1 (stereo unspecified) and give its measured solubility (mole fraction).
Result block: 0.0046

* * *

conditions: in ethyl acetate, 293.65 K
Parameter: solubility (mole fraction)
Form rule: numeric answer, no unit written next to it.

Query block: Consider the compound CC1(C)COP(=O)(C(Nc2ccccc2)c2ccccc2)OC1 (stereo unspecified) and give its measured solubility (mole fraction).
Result block: 0.00232

* * *

conditions: in acetonitrile, 288.75 K
Parameter: solubility (mole fraction)
Form rule: numeric answer, no unit written next to it.

Query block: Consider the compound CC1(C)COP(=O)(C(Nc2ccccc2)c2ccccc2)OC1 (stereo unspecified) and give its measured solubility (mole fraction).
Result block: 0.00746

* * *

conditions: in isopropanol, 317.55 K
Parameter: solubility (mole fraction)
Form rule: numeric answer, no unit written next to it.

Query block: Consider the compound CC1(C)COP(=O)(C(Nc2ccccc2)c2ccccc2)OC1 (stereo unspecified) and give its measured solubility (mole fraction).
Result block: 0.00254

* * *

settings: in THF, 293.25 K
Parameter: solubility (mole fraction)
Form rule: numeric answer, no unit written next to it.

Query block: Consider the compound CC1(C)COP(=O)(C(Nc2ccccc2)c2ccccc2)OC1 (stereo unspecified) and give its measured solubility (mole fraction).
Result block: 0.00858

* * *

conditions: in chloroform, 293.95 K
Parameter: solubility (mole fraction)
Form rule: numeric answer, no unit written next to it.

Query block: Consider the molecule CC1(C)COP(=O)(C(Nc2ccccc2)c2ccccc2)OC1 (stereo unspecified) and give its measured solubility (mole fraction).
Result block: 0.042

* * *

settings: in acetone, 307.85 K
Parameter: solubility (mole fraction)
Form rule: numeric answer, no unit written next to it.

Query block: Consider the compound CC1(C)COP(=O)(C(Nc2ccccc2)c2ccccc2)OC1 (stereo unspecified) and give its measured solubility (mole fraction).
Result block: 0.0112

* * *

conditions: in chloroform, 317.95 K
Parameter: solubility (mole fraction)
Form rule: numeric answer, no unit written next to it.

Query block: Consider the compound CC1(C)COP(=O)(C(Nc2ccccc2)c2ccccc2)OC1 (stereo unspecified) and give its measured solubility (mole fraction).
Result block: 0.0548

* * *

settings: in acetone, 321.25 K
Parameter: solubility (mole fraction)
Form rule: numeric answer, no unit written next to it.

Query block: Consider the compound CC1(C)COP(=O)(C(Nc2ccccc2)c2ccccc2)OC1 (stereo unspecified) and give its measured solubility (mole fraction).
Result block: 0.0186

* * *

details: in dichloromethane, 298.85 K
Parameter: solubility (mole fraction)
Form rule: numeric answer, no unit written next to it.

Query block: Consider the compound CC1(C)COP(=O)(C(Nc2ccccc2)c2ccccc2)OC1 (stereo unspecified) and give its measured solubility (mole fraction).
Result block: 0.0189

* * *

conditions: in 1,4-dioxane, 318.15 K
Parameter: solubility (mole fraction)
Form rule: numeric answer, no unit written next to it.

Query block: Consider the molecule CC1(C)COP(=O)(C(Nc2ccccc2)c2ccccc2)OC1 (stereo unspecified) and give its measured solubility (mole fraction).
Result block: 0.0162

* * *

conditions: in ethyl acetate, 317.95 K
Parameter: solubility (mole fraction)
Form rule: numeric answer, no unit written next to it.

Query block: Consider the compound CC1(C)COP(=O)(C(Nc2ccccc2)c2ccccc2)OC1 (stereo unspecified) and give its measured solubility (mole fraction).
Result block: 0.00671

* * *

conditions: in ethyl acetate, 303.15 K
Parameter: solubility (mole fraction)
Form rule: numeric answer, no unit written next to it.

Query block: Consider the compound CC1(C)COP(=O)(C(Nc2ccccc2)c2ccccc2)OC1 (stereo unspecified) and give its measured solubility (mole fraction).
Result block: 0.00385
